target: Nucleotide-binding oligomerization domain-containing protein 2 (Homo sapiens); assay: Activation of NOD2 expressed in HEK293 cells assessed as increase in IL8 secretion measured at 0.01 to 0.7 uM after 18 hrs by ELISA; type: cell-based
Calls of active or inactive are those of the source. No cut-off for these calls is given here.
Your answer must be one of the following: active, inactive

CC(=O)N[C@H]1C(O)O[C@H](COC(=O)CCCCCNC(=O)CCCCCNC(=O)CCCCCNC(=O)CCCC[C@@H]2SC[C@@H]3NC(=O)N[C@@H]32)[C@@H](O)[C@@H]1O[C@H](C)C(=O)N[C@@H](C)C(=O)N[C@H](CCC(=O)O)C(N)=O (some centres not stated)    active
CC(=O)N[C@H]1C(O)O[C@H](CO)[C@@H](O)[C@@H]1O[C@H](C)C(=O)N[C@@H](C)C(=O)N[C@H](CCC(=O)O)C(N)=O (some centres not stated)    active
CC(=O)N[C@H]1[C@@H](OP(=O)(O)OP(=O)(O)OC[C@H]2O[C@@H](n3ccc(=O)[nH]c3=O)[C@H](O)[C@@H]2O)O[C@H](CO)[C@@H](O)[C@@H]1O[C@H](C)C(=O)N[C@@H](C)C(=O)N[C@H](CCC(=O)N[C@@H](CCC[C@@H](NC(=O)CCCC[C@@H]1SC[C@@H]2NC(=O)N[C@@H]21)C(=O)O)C(=O)O)C(=O)O    active

-- ask Called result for CC(=O)N[C@H]1C(O)O[C@H](CO)[C@@H](O)[C@@H]1O[C@H](C)C(=O)N[C@@H](C)C(=O)N[C@H](CCC(=O)N[C@@H](CCCCNC(=O)CCCCCNC(=O)CCCCCNC(=O)CCCC[C@@H]1SC[C@@H]2NC(=O)N[C@@H]21)C(=O)O)C(=O)O (some centres not stated)
-- reply active

* * *

target: Nucleotide-binding oligomerization domain-containing protein 2 (Homo sapiens); assay: Activation of NOD2 expressed in HEK293 cells assessed as increase in IL8 secretion measured at 0.01 to 0.7 uM after 18 hrs by ELISA; assay type: cell-based
Calls of active or inactive are those of the source. The calls are words filed in the database; no cut-off is given here.
In this exercise, the only acceptable responses are Yes = active, No = inactive

For orientation, consider the following solved cases.
CC(=O)N[C@H]1[C@@H](OP(=O)(O)OP(=O)(O)OC[C@H]2O[C@@H](n3ccc(=O)[nH]c3=O)[C@H](O)[C@@H]2O)O[C@H](CO)[C@@H](O)[C@@H]1O[C@H](C)C(=O)N[C@@H](C)C(=O)N[C@H](CCC(=O)N[C@@H](CCCCNC(=O)CCCC[C@@H]1SC[C@@H]2NC(=O)N[C@@H]21)C(=O)O)C(=O)O    Yes
CC(=O)N[C@H]1C(O)O[C@H](CO)[C@@H](O)[C@@H]1O[C@H](C)C(=O)N[C@@H](C)C(=O)N[C@H](CCC(=O)N[C@@H](CCCCNC(=O)CCCC[C@@H]1SC[C@@H]2NC(=O)N[C@@H]21)C(=O)O)C(=O)O (stereo partly drawn)    Yes
CC(=O)N[C@H]1C(O)O[C@H](CO)[C@@H](O)[C@@H]1O[C@H](C)C(=O)N[C@@H](C)C(=O)N[C@H](CCC(=O)N[C@@H](CCC[C@@H](NC(=O)CCCC[C@@H]1SC[C@@H]2NC(=O)N[C@@H]21)C(=O)O)C(=O)O)C(=O)O (stereo partly drawn)    No

For the next question, use this compound.
-- ask Outcome logged for CC(=O)N[C@H]1C(O)O[C@H](CO)[C@@H](O)[C@@H]1O[C@H](C)C(=O)N[C@@H](C)C(=O)N[C@H](CCC(=O)N[C@@H](CCC[C@@H](N)C(=O)O)C(=O)O)C(=O)O (stereo partly drawn) in this assay:
-- reply No
